Source listed as patent US20230066011A1.

Target: DYRK1B (Homo sapiens, UniProt Q9Y463)
Construct: purchased DiscoverX Corp. (ScanMAX Kinase analysis panel, service)
Sequence (Q9Y463 whole entry): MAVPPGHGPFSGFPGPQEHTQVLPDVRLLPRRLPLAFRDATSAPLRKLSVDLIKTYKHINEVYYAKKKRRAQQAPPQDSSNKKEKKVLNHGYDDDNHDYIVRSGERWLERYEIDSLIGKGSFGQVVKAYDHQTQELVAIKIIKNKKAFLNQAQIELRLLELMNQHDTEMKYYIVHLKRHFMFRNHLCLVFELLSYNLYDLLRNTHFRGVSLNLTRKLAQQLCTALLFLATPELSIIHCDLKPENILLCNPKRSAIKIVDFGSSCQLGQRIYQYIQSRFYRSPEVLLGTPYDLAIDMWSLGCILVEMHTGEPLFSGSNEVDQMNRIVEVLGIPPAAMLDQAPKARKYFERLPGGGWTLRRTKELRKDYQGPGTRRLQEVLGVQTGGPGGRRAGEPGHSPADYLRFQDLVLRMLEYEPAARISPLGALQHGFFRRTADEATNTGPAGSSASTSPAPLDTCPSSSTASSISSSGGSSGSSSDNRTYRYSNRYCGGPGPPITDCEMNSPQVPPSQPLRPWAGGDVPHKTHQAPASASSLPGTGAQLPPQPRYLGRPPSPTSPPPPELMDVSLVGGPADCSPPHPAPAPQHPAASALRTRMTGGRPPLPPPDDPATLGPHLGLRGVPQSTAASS
Test: ScanMAX Kinase analysis panel, DYRK1B
Format: binding
Conditions: 1 μM in DMSO; <35% considered inhibitory; read-out: percent control (% control), DYRK1B
Quantity: remaining binding at 1 µM (%)

{"Molecule": "CNc1nc(Nc2ccc(C(=O)N3CCC(N4CCOCC4)CC3)c3c2OCCO3)nc2[nH]cc(C(F)(F)F)c12", "remaining binding at 1 µM [%]": 0}
{"Molecule": "CNc1nc(Nc2ccc(S(=O)(=O)N3CCC(N4CCOCC4)CC3)cc2OC)nc2[nH]cc(C(F)(F)F)c12 [Example 157, 2,2,2-trifluoroacetate]", "remaining binding at 1 µM [%]": 0}
{"Molecule": "O=C(c1ccc(Nc2nc(C3CC3)c3c(C(F)(F)F)c[nH]c3n2)c2c1OCCO2)N1CCC(N2CCOCC2)CC1", "remaining binding at 1 µM [%]": 0}
{"Molecule": "C=CCNc1nc(Nc2ccc(S(=O)(=O)N3CCC(N4CCOCC4)CC3)cc2OC)nc2[nH]cc(C#N)c12", "remaining binding at 1 µM [%]": 6.1}

I: CCCNc1nc(Nc2ccc(S(=O)(=O)N3CCC(N4CCOCC4)CC3)cc2OC)nc2[nH]cc(C(F)(F)F)c12
II: CCNc1nc(Nc2ccc(S(=O)(=O)N3CCC(N4CCOCC4)CC3)cc2OC)nc2[nH]cc(C(F)(F)F)c12 [Example 158, 2,2,2-trifluoroacetate]
III: CNc1nc(Nc2ccc(P3(=O)CCN(C4CC4)CC3)cc2OC)nc2[nH]cc(C(F)(F)F)c12
Let's sort these by remaining binding at 1 µM, smallest first. Go ahead? # list labels per requested ordering I, II, III
(I: 0%, II: 0.8%, III: 4.5%)

----------
Molecular target: human GST-DYRK1A (Homo sapiens, UniProt Q13627)
pIC50: −log10 of the molar value.
Measured pIC50 of individual entries

Use these answered entries as a reference point.
{"Compound": "N#Cc1c[nH]c2nc(Nc3ccc(C(=O)N4CCN(C5COC5)CC4)c4c3OCCO4)nc(NCC3CCC3)c12", "pIC50": "6.00 to 6.52"}
{"Compound": "CCNc1nc(Nc2ccc(C(=O)N3CCC(N4CCOCC4)CC3)c3c2OCCO3)nc2[nH]cc(C#N)c12", "pIC50": "6.52 to 7.00"}
{"Compound": "N#Cc1c[nH]c2nc(Nc3ccc(C(=O)N4CCN(C5CC5)CC4)c4c3OCCO4)nc(NC3CCCCC3)c12", "pIC50": "6.00 to 6.52"}
{"Compound": "COc1cc(P2(=O)CCN(C3CC3)CC2)ccc1Nc1nc(NC2CC2)c2c(C(F)(F)F)c[nH]c2n1", "pIC50": "> 7.00"}
{"Compound": "CNc1nc(Nc2ccc(S(=O)(=O)N3CCC(N4CCOCC4)CC3)cc2OC)nc2[nH]cc(C(F)(F)F)c12 [Example 157, 2,2,2-trifluoroacetate]", "pIC50": "> 7.00"}
{"Compound": "O=C(c1ccc(Nc2nc(N[C@@H]3CCOC3)c3c(C(F)(F)F)c[nH]c3n2)c2c1OCCO2)N1CCN(C2COC2)CC1", "pIC50": "> 7.00"}

Item `COc1cc(P2(=O)CCN(C3CC3)CC2)ccc1Nc1nc(NCCS(C)(=O)=O)c2c(C#N)c[nH]c2n1` has what recorded pIC50? 6.00 to 6.52

Continue with `CNc1nc(Nc2ccc(P3(=O)CCN(C4COC4)CC3)cc2OC)nc2[nH]cc(C#N)c12` 6.00 to 6.52

Continue with `COc1cc(S(C)(=O)=O)ccc1Nc1nc(NC2CCCC2)c2c(C(F)(F)F)c[nH]c2n1` 6.00 to 6.52

Continue with COCCNc1nc(Nc2ccc(C(=O)N3CCOCC3)c3c2OCCO3)nc2[nH]ccc12 [Example 46, 2,2,2-trifluoroacetate] 6.00 to 6.52

Continue with COCCNc1nc(Nc2ccc(S(C)(=O)=O)cc2OC)nc2[nH]ccc12 [Example 21, 2,2,2-trifluoroacetate] 6.00 to 6.52

Continue with `COc1cc(S(=O)(=O)N2CCOCC2)ccc1Nc1nc(NCC2CC2)c2c(C(F)(F)F)c[nH]c2n1` 6.00 to 6.52

Continue with `CC[C@H](C)Nc1nc(Nc2ccc(S(=O)(=O)N3CCOCC3)cc2OC)nc2[nH]cc(C#N)c12` 6.00 to 6.52

Continue with COc1cc(S(=O)(=O)N2CCC(N3CCOCC3)CC2)ccc1Nc1nc(NCC2CCC2)c2cc[nH]c2n1 [Example 38, 2,2,2-trifluoroacetate] 6.00 to 6.52

----------
Measured IC50 of individual entries
Target: LRRK2 (G2019S) (Homo sapiens, UniProt Q5S007, G2019S)
Sequence (Q5S007 970-2527 G2019S limits assumed): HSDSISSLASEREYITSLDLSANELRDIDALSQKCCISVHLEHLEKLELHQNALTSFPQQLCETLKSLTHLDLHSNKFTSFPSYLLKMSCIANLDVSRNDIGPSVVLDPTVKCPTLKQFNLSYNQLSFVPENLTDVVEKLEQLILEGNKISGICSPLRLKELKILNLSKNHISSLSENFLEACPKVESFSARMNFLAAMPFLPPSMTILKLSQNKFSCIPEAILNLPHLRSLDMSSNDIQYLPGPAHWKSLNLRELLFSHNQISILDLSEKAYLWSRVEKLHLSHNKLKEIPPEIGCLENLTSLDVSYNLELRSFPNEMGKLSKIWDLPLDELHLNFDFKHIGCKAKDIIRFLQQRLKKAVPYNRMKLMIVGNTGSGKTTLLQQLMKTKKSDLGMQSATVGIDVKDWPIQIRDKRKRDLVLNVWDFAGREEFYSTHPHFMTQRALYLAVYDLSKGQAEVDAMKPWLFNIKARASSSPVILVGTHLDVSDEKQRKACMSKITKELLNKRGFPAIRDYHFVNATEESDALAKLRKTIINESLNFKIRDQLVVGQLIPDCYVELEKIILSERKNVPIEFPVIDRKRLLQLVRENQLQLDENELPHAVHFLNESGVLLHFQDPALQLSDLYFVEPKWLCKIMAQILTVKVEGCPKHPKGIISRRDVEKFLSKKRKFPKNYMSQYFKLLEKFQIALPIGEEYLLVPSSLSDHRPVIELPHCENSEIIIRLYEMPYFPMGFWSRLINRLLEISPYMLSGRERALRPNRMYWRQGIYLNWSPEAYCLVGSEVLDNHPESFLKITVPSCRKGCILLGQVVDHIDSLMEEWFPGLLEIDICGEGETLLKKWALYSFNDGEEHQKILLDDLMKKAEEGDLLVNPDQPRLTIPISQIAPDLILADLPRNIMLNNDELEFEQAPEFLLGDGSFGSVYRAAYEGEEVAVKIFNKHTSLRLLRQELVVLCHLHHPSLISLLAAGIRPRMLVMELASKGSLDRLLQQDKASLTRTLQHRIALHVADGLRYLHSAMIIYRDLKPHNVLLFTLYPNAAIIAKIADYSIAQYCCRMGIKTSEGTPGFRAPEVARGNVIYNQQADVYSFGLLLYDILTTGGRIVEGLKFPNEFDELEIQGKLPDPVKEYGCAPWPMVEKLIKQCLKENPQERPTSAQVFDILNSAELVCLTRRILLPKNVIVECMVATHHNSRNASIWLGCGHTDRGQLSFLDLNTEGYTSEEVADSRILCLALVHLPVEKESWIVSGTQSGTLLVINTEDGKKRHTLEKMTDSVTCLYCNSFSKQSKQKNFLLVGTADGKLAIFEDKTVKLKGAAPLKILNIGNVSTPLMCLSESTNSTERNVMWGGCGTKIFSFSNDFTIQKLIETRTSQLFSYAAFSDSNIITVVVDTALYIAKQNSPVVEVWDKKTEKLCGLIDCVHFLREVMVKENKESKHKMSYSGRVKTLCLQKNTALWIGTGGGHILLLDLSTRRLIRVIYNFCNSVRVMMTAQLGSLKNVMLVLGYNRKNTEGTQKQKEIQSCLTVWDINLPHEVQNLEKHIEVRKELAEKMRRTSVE
Assay: LRRK2 G2019S enzyme inhibition, ADP-Glo kinase assay
Format: biochemical
Design: purchased SignalChem L10-12GG
Details: ATP 25 μM

Use these answered entries as a reference point.
{"Compound": "CCCCNc1nc(Nc2ccc(P(C)(C)=O)cc2OC)nc2[nH]cc(C(F)(F)F)c12", "Target Under Test": "LRRK2 (G2019S) (Homo sapiens, UniProt Q5S007, G2019S)", "IC50": "< 100 nM"}
{"Compound": "CNc1nc(Nc2ccc(S(=O)(=O)N3CCC(N4CCOCC4)CC3)cc2OC)nc2[nH]cc(C(F)(F)F)c12 [Example 157, 2,2,2-trifluoroacetate]", "Target Under Test": "LRRK2 (G2019S) (Homo sapiens, UniProt Q5S007, G2019S)", "IC50": "< 100 nM"}
{"Compound": "O=C(c1ccc(Nc2nc(NC3CC3)c3c(C(F)(F)F)c[nH]c3n2)c2c1CCO2)N1CCOCC1", "Target Under Test": "LRRK2 (G2019S) (Homo sapiens, UniProt Q5S007, G2019S)", "IC50": "< 100 nM"}
{"Compound": "O=C(c1ccc(Nc2nc(NC3CCC3)c3cc[nH]c3n2)c2c1OCCO2)N1CCOCC1", "Target Under Test": "LRRK2 (G2019S) (Homo sapiens, UniProt Q5S007, G2019S)", "IC50": "< 100 nM"}
{"Compound": "CCNc1nc(Nc2ccc(C(=O)N3CCC(N4CCOCC4)CC3)c3c2OCO3)nc2[nH]cc(C(F)(F)F)c12", "Target Under Test": "LRRK2 (G2019S) (Homo sapiens, UniProt Q5S007, G2019S)", "IC50": "< 100 nM"}

Item `COc1cc(S(=O)(=O)N2CCC(N3CCOCC3)CC2)ccc1Nc1nc(NC(C)C)c2c(C#N)c[nH]c2n1` has what recorded IC50? < 100 nM

Continue with `COCCNc1nc(Nc2ccc(C(=O)N3CCC(N4CCOCC4)CC3)c3c2OCCO3)nc2[nH]cc(C(F)(F)F)c12` < 100 nM

Continue with `CNc1nc(Nc2ccc(C(=O)N3CCC(N4CCOCC4)CC3)c3c2OCC3)nc2[nH]cc(C(F)(F)F)c12` < 100 nM

Continue with `COc1cc(S(=O)(=O)N2CCC(N3CCOCC3)CC2)ccc1Nc1nc(NCC(C)C)c2c(C(F)(F)F)c[nH]c2n1` 101 to 300 nM

Continue with `COc1cc(S(=O)(=O)N2CCOCC2)ccc1Nc1nc(NC2CCC2)c2cc[nH]c2n1` < 100 nM

Continue with `COCC(C)(C)Nc1nc(Nc2ccc(S(=O)(=O)N3CCOCC3)cc2OC)nc2[nH]cc(C(F)(F)F)c12` 301 to 1000 nM

----------
Measured inhibition at 0.5 µM of individual entries
System: TNF-α
Assay: Inhibition of LPS-induced TNF-α secretion of THP-1 monocytes (ELISA)
Format: cell-based, human
Settings: Homo sapiens, THP-1; compound 0.5 μM, LPS 500 ng/mL, 24 hours; read-out: THP-1/TNF-α (% inhib)
All answers are understood in %, so give the number only.

Use these answered entries as a reference point.
{"Compound": "CCCNc1nc(Nc2ccc(C(=O)N3CCC(N4CCOCC4)CC3)c3c2OCC3)nc2[nH]cc(C(F)(F)F)c12", "Target Under Test": "TNF-α", "Numeric Value": 22.5}
{"Compound": "CNc1nc(Nc2ccc(C(=O)N3C[C@@H]4C[C@H]3CO4)c3c2OCCO3)nc2[nH]cc(C(F)(F)F)c12", "Target Under Test": "TNF-α", "Numeric Value": 4.3}
{"Compound": "CNc1nc(Nc2ccc(C(=O)N3CCN(C4COC4)CC3)c3c2OCCO3)nc2[nH]cc(C(F)(F)F)c12", "Target Under Test": "TNF-α", "Numeric Value": 5.6}
{"Compound": "COCCNc1nc(Nc2ccc(C(=O)N3CCC(N4CCOCC4)CC3)c3c2OCCO3)nc2[nH]cc(C(F)(F)F)c12", "Target Under Test": "TNF-α", "Numeric Value": 19.2}
{"Compound": "CCNc1nc(Nc2ccc(C(=O)N3CCC(N4C[C@@H]5C[C@H]4CO5)CC3)c3c2OCC3)nc2[nH]cc(C(F)(F)F)c12", "Target Under Test": "TNF-α", "Numeric Value": 16.5}

Item `COCCNc1nc(Nc2ccc(P3(=O)CCN(C4CCOCC4)CC3)cc2OC)nc2[nH]cc(C(F)(F)F)c12` has what recorded inhibition at 0.5 µM? 14.4

Continue with `COCCNc1nc(Nc2ccc(C(=O)N3CCOCC3)c3c2OCC3)nc2[nH]cc(C(F)(F)F)c12` 1.9
